Overview of recorded Composition: residual substrate for various compounds
Test system: non-reducing saccharide-forming enzyme
Assay type: biochemical, Rhizobium species M-11
study_conditions: non-reducing saccharide-forming enzyme, 48 h, pH 7
Field format: number, assumed %, no unit text.

Answered examples (3):
OC[C@H]1O[C@H](O[C@H]2[C@H](O)[C@@H](O)[C@@H](O[C@H]3[C@H](O)[C@@H](O)[C@@H](O[C@H]4[C@H](O)[C@@H](O)[C@@H](O[C@H]5[C@H](O)[C@@H](O)[C@@H](O[C@H]6[C@H](O)[C@@H](O)[C@@H](O[C@H]7[C@H](O)[C@@H](O)C(O)O[C@@H]7CO)O[C@@H]6CO)O[C@@H]5CO)O[C@@H]4CO)O[C@@H]3CO)O[C@@H]2CO)[C@H](O)[C@@H](O)[C@@H]1O (stereo partly shown) [Maltoheptaose, maltoheptaose, reference compound]: 6.6
OC[C@H]1O[C@H](O[C@H]2[C@H](O)[C@@H](O)[C@@H](O[C@H]3[C@H](O)[C@@H](O)C(O)O[C@@H]3CO)O[C@@H]2CO)[C@H](O)[C@@H](O)[C@@H]1O (stereo partly shown) [Maltotriose, maltotriose, reference compound]: 65.0
OC[C@H]1O[C@H](O[C@H]2[C@H](O)[C@@H](O)C(O)O[C@@H]2CO)[C@H](O)[C@@H](O)[C@@H]1O (mixture of isomers): 100.0

// next item, Composition: residual substrate requested
# Composition: residual substrate lookup, item OC[C@H]1OC(O)[C@H](O)[C@@H](O)[C@@H]1O (stereo partly shown)
100.0

---

System: acetone-pulverized rat small intestine enzyme
measurement_notes: Degradation by acetone-pulverized rat small intestine enzyme
Type: biochemical
study_conditions: pH6.0, 37° C., 18 hours
Measured Trehalose in degradation product by acetone-powdered rat small intestine enzyme of individual entries
A number alone suffices; assume %.

// known answers, use as guide
OC[C@H]1O[C@H](O[C@H]2O[C@H](CO)[C@@H](O[C@H]3O[C@H](CO)[C@@H](O[C@H]4O[C@H](CO)[C@@H](O[C@H]5O[C@H](CO)[C@@H](O[C@H]6O[C@H](CO)[C@@H](O)[C@H](O)[C@H]6O)[C@H](O)[C@H]5O)[C@H](O)[C@H]4O)[C@H](O)[C@H]3O)[C@H](O)[C@H]2O)[C@H](O)[C@@H](O)[C@@H]1O [PIV, alpha-maltotetraosyl trehalose]: 30.8
OC[C@H]1O[C@H](O[C@H]2O[C@H](CO)[C@@H](O[C@H]3O[C@H](CO)[C@@H](O[C@H]4O[C@H](CO)[C@@H](O[C@H]5O[C@H](CO)[C@@H](O[C@H]6O[C@H](CO)[C@@H](O[C@H]7O[C@H](CO)[C@@H](O)[C@H](O)[C@H]7O)[C@H](O)[C@H]6O)[C@H](O)[C@H]5O)[C@H](O)[C@H]4O)[C@H](O)[C@H]3O)[C@H](O)[C@H]2O)[C@H](O)[C@@H](O)[C@@H]1O [PV, alpha-maltopentaosyl trehalose]: 26.5
OC[C@H]1O[C@H](O[C@H]2O[C@H](CO)[C@@H](O[C@H]3O[C@H](CO)[C@@H](O[C@H]4O[C@H](CO)[C@@H](O)[C@H](O)[C@H]4O)[C@H](O)[C@H]3O)[C@H](O)[C@H]2O)[C@H](O)[C@@H](O)[C@@H]1O [PII, alpha-maltosyl trehalose]: 47.1

Data request, read-out Trehalose in degradation product by acetone-powdered rat small intestine enzyme, for OC[C@H]1O[C@H](O[C@H]2O[C@H](CO)[C@@H](O[C@H]3O[C@H](CO)[C@@H](O[C@H]4O[C@H](CO)[C@@H](O[C@H]5O[C@H](CO)[C@@H](O)[C@H](O)[C@H]5O)[C@H](O)[C@H]4O)[C@H](O)[C@H]3O)[C@H](O)[C@H]2O)[C@H](O)[C@@H](O)[C@@H]1O [PIII, alpha-maltotriosyl trehalose]
37.6

Need Trehalose in degradation product by acetone-powdered rat small intestine enzyme, item OC[C@H]1O[C@H](O[C@H]2O[C@H](CO)[C@@H](O[C@H]3O[C@H](CO)[C@@H](O)[C@H](O)[C@H]3O)[C@H](O)[C@H]2O)[C@H](O)[C@@H](O)[C@@H]1O [PI, alpha-glucosyl trehalose]
62.4

---

tested_on: trehalose-releasing enzyme (Rhizobium sp. M-11)
Construct: M-11, about 58-68 kDa
Sequence (Q53238 whole entry): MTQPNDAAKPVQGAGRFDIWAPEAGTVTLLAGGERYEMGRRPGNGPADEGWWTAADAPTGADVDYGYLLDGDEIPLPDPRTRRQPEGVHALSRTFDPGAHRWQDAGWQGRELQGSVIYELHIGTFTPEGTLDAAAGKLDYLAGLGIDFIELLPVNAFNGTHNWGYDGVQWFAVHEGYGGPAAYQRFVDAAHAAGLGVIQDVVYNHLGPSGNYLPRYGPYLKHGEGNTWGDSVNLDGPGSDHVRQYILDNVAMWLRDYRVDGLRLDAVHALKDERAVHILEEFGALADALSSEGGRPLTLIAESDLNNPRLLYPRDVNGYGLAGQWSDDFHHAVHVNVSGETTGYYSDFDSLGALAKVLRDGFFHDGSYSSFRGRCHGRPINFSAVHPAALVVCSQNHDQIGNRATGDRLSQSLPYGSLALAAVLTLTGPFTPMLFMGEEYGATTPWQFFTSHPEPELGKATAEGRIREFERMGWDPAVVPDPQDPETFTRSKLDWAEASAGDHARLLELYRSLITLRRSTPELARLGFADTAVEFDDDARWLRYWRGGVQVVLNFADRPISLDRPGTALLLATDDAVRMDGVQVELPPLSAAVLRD
Type: biochemical, Rhizobium species M-11
study_conditions: 20% substrate, 2 units/g, 40° C., pH7.0, 48 hours; glucose, maltose, maltotriose, maltotetraose or maltopentaose respectively
Protocol: Alpha-glycosyl trehaloses as substrates were prepared in accordance with the method described in Japanese Patent Application No. 349,216/93. […]
value_type: Composition: reducing saccharide formed (%)
Give the value, in units of %, as a plain number.

# returns recorded Composition: reducing saccharide formed (system: trehalose-releasing enzyme (Rhizobium sp. M-11)) for `OC[C@H]1O[C@H](O[C@H]2O[C@H](CO)[C@@H](O[C@H]3O[C@H](CO)[C@@H](O[C@H]4O[C@H](CO)[C@@H](O[C@H]5O[C@H](CO)[C@@H](O[C@H]6O[C@H](CO)[C@@H](O)[C@H](O)[C@H]6O)[C@H](O)[C@H]5O)[C@H](O)[C@H]4O)[C@H](O)[C@H]3O)[C@H](O)[C@H]2O)[C@H](O)[C@@H](O)[C@@H]1O`
65.5

// map `OC[C@H]1O[C@H](O[C@H]2O[C@H](CO)[C@@H](O[C@H]3O[C@H](CO)[C@@H](O[C@H]4O[C@H](CO)[C@@H](O[C@H]5O[C@H](CO)[C@@H](O[C@H]6O[C@H](CO)[C@@H](O[C@H]7O[C@H](CO)[C@@H](O)[C@H](O)[C@H]7O)[C@H](O)[C@H]6O)[C@H](O)[C@H]5O)[C@H](O)[C@H]4O)[C@H](O)[C@H]3O)[C@H](O)[C@H]2O)[C@H](O)[C@@H](O)[C@@H]1O` to recorded Composition: reducing saccharide formed (system: trehalose-releasing enzyme (Rhizobium sp. M-11))
70.6

---

Item-by-item account of G2 (maltose) in degradation product by alpha-amylase
Tested on: pig pancreas alpha-amylase
measurement_notes: Degradation by pig pancreas alpha-amylase
Assay type: biochemical
study_conditions: pH6.9, 37° C., 18 hours
I only need the number, in %, no unit after it.

These recorded examples may help you get a feel for the data.
OC[C@H]1O[C@H](O[C@H]2O[C@H](CO)[C@@H](O[C@H]3O[C@H](CO)[C@@H](O[C@H]4O[C@H](CO)[C@@H](O[C@H]5O[C@H](CO)[C@@H](O)[C@H](O)[C@H]5O)[C@H](O)[C@H]4O)[C@H](O)[C@H]3O)[C@H](O)[C@H]2O)[C@H](O)[C@@H](O)[C@@H]1O: 33.0
OC[C@H]1O[C@H](O[C@H]2O[C@H](CO)[C@@H](O[C@H]3O[C@H](CO)[C@@H](O[C@H]4O[C@H](CO)[C@@H](O[C@H]5O[C@H](CO)[C@@H](O[C@H]6O[C@H](CO)[C@@H](O)[C@H](O)[C@H]6O)[C@H](O)[C@H]5O)[C@H](O)[C@H]4O)[C@H](O)[C@H]3O)[C@H](O)[C@H]2O)[C@H](O)[C@@H](O)[C@@H]1O: 7.5
OC[C@H]1O[C@H](O[C@H]2O[C@H](CO)[C@@H](O[C@H]3O[C@H](CO)[C@@H](O[C@H]4O[C@H](CO)[C@@H](O[C@H]5O[C@H](CO)[C@@H](O[C@H]6O[C@H](CO)[C@@H](O[C@H]7O[C@H](CO)[C@@H](O)[C@H](O)[C@H]7O)[C@H](O)[C@H]6O)[C@H](O)[C@H]5O)[C@H](O)[C@H]4O)[C@H](O)[C@H]3O)[C@H](O)[C@H]2O)[C@H](O)[C@@H](O)[C@@H]1O: 8.6
OC[C@H]1O[C@H](O[C@H]2O[C@H](CO)[C@@H](O[C@H]3O[C@H](CO)[C@@H](O)[C@H](O)[C@H]3O)[C@H](O)[C@H]2O)[C@H](O)[C@@H](O)[C@@H]1O: 0.4

Now take the following compound into account.
Request body: readout G2 (maltose) in degradation product by alpha-amylase, system pig pancreas alpha-amylase, query `OC[C@H]1O[C@H](O[C@H]2O[C@H](CO)[C@@H](O[C@H]3O[C@H](CO)[C@@H](O[C@H]4O[C@H](CO)[C@@H](O)[C@H](O)[C@H]4O)[C@H](O)[C@H]3O)[C@H](O)[C@H]2O)[C@H](O)[C@@H](O)[C@@H]1O` . Return the value.
0.8

---

// reported PI in degradation product by alpha-amylase per item
Tested on: pig pancreas alpha-amylase
measurement_notes: Degradation by pig pancreas alpha-amylase
Assay type: biochemical
study_conditions: pH6.9, 37° C., 18 hours
Could you give me the number in %? Just the number is fine.

For orientation, consider the following solved cases.
OC[C@H]1O[C@H](O[C@H]2O[C@H](CO)[C@@H](O[C@H]3O[C@H](CO)[C@@H](O[C@H]4O[C@H](CO)[C@@H](O[C@H]5O[C@H](CO)[C@@H](O[C@H]6O[C@H](CO)[C@@H](O)[C@H](O)[C@H]6O)[C@H](O)[C@H]5O)[C@H](O)[C@H]4O)[C@H](O)[C@H]3O)[C@H](O)[C@H]2O)[C@H](O)[C@@H](O)[C@@H]1O [PIV, alpha-maltotetraosyl trehalose]: 47.2
OC[C@H]1O[C@H](O[C@H]2O[C@H](CO)[C@@H](O[C@H]3O[C@H](CO)[C@@H](O)[C@H](O)[C@H]3O)[C@H](O)[C@H]2O)[C@H](O)[C@@H](O)[C@@H]1O [PI, alpha-glucosyl trehalose]: 97.3
OC[C@H]1O[C@H](O[C@H]2O[C@H](CO)[C@@H](O[C@H]3O[C@H](CO)[C@@H](O[C@H]4O[C@H](CO)[C@@H](O[C@H]5O[C@H](CO)[C@@H](O[C@H]6O[C@H](CO)[C@@H](O[C@H]7O[C@H](CO)[C@@H](O)[C@H](O)[C@H]7O)[C@H](O)[C@H]6O)[C@H](O)[C@H]5O)[C@H](O)[C@H]4O)[C@H](O)[C@H]3O)[C@H](O)[C@H]2O)[C@H](O)[C@@H](O)[C@@H]1O [PV, alpha-maltopentaosyl trehalose]: 10.2

Attention now turns to another entry.
Suppose we examine the compound OC[C@H]1O[C@H](O[C@H]2O[C@H](CO)[C@@H](O[C@H]3O[C@H](CO)[C@@H](O[C@H]4O[C@H](CO)[C@@H](O)[C@H](O)[C@H]4O)[C@H](O)[C@H]3O)[C@H](O)[C@H]2O)[C@H](O)[C@@H](O)[C@@H]1O [PII, alpha-maltosyl trehalose] ; what PI in degradation product by alpha-amylase value has been reported?
0
